Data credit: PubChem BioAssay AID493029

# protocol_summary: thallium flux change in parental CHO cells, counter-screen for KCNQ2 inhibitor project (AID 493029)
# test_settings: at 10 µM
Out of some 1,000 compounds screened, about 140 (14%) were called active. The rule behind the calls is not given here. Not all results are given here.
API: response.call in 1 = active, -1 = inactive

Asked: Just curious, what result did `CC(C)N(C(=O)CSc1nc(COc2ccccc2)nc2ccccc12)C(C)C` get here?
Given back: 1

Asked: Just curious, what result did CC(NC(=S)NNS(=O)(=O)c1ccc(C(C)(C)C)cc1)c1ccccc1 (stereo not drawn) get here?
Given back: -1

Asked: Just curious, what result did CC(C(=O)NCC1CCCCC1)N(C)Cc1cccc(Cl)c1 (stereo not drawn) get here?
Given back: 1

Asked: Just curious, what result did `COc1cccc(COc2ccc(N(C)S(=O)(=O)c3ccccc3)cc2)c1` get here?
Given back: -1

Asked: Just curious, what result did `CSCc1cc(N(C)C)nc(SCc2ccc(Cl)cc2Cl)n1` get here?
Given back: -1

Asked: Just curious, what result did `C=CCn1c(SCC(=O)/C(C#N)=C(\C)N)nc2sc(C)c(C)c2c1=O` get here?
Given back: -1

Asked: Just curious, what result did Cc1cccc(C(=O)OC(C)C(=O)NC2CCCc3ccccc32)c1O (stereo not drawn) get here?
Given back: -1

Asked: Just curious, what result did `Cc1ccc(C(C)C)cc1OCC(=O)Nc1ccccc1N1CCCC1` get here?
Given back: -1

Asked: Just curious, what result did `CCc1ccc(-c2nn(-c3ccccc3)cc2CSC(=N)N)cc1` get here?
Given back: 1

Asked: Just curious, what result did `CCc1ccc2ncc(C(=O)c3ccccc3)c(N3CCOCC3)c2c1` get here?
Given back: -1

Asked: Just curious, what result did `Cc1nc2ccccc2c(-c2ccccc2)c1C(=O)c1ccccc1` get here?
Given back: -1

Asked: Just curious, what result did `O=C(Nc1ccc(Cl)c(Cl)c1)N1CC=C(c2ccccc2)CC1` get here?
Given back: -1

Asked: Just curious, what result did `CCc1ccc(-c2cc(C(=O)NCc3ccco3)c3ccccc3n2)s1` get here?
Given back: -1

Asked: Just curious, what result did `COc1ccc(Cl)cc1NC(=O)CN(C)Cc1ccc(OC)c(OC)c1` get here?
Given back: -1

Asked: Just curious, what result did CCOC(=O)C(C)Sc1nc2ccccc2c(=O)n1CC1CCCCC1 (stereo not drawn) get here?
Given back: 1

Asked: Just curious, what result did `Cc1ccccc1N1CCN(CC(=O)NCc2ccc(Cl)cc2)CC1` get here?
Given back: -1

Asked: Just curious, what result did O=C(Nc1ccccc1Cl)/C(Cl)=C(\Cl)S(=O)c1ccccc1 (stereo not drawn) get here?
Given back: -1

Asked: Just curious, what result did `O=C(OCC(=O)N(CCc1ccccc1)Cc1ccccc1)c1ccccc1[N+](=O)[O-]` get here?
Given back: -1
